Conditions: buffer; pH 7.4; 200.0 µM

{"compound": "N#CC1(NC(=O)COc2ccccc2[N+](=O)[O-])CCCCC1", "solubility kinetic": "> 45.5 µg/mL"}
{"compound": "O=C1CC(N2CCN(S(=O)(=O)c3ccccc3F)CC2)C(=O)N1c1ccc(F)cc1F (stereo not drawn)", "solubility kinetic": "> 68 µg/mL"}
{"compound": "Cc1ccc(S(=O)(=O)NCC(=O)OCC(=O)N2CC(=O)Nc3ccccc32)cc1", "solubility kinetic": "> 62.6 µg/mL"}

* * *

Details: buffer; pH 7.4; 200.0 µM
reported metric: solubility kinetic

{"compound": "CC(=O)Nc1ccc(C(=O)O)cc1", "assay value": "> 26.9 µg/mL"}
{"compound": "O=C(O)CC1(CC(=O)Nc2cc(F)ccc2Cl)CCCCC1", "assay value": "> 49.2 µg/mL"}
{"compound": "C=CCNC(=O)COC(=O)c1nc2nccc(C)n2n1", "assay value": "> 41.3 µg/mL"}
{"compound": "O=C(NC1CCCCC1)c1ccc2[nH]c(=O)c(=O)[nH]c2c1", "assay value": "> 43.1 µg/mL"}
{"compound": "Clc1ccccc1-c1ncc(-c2ccccc2)o1", "assay value": "< 0.5 µg/mL"}
{"compound": "CC(=O)Nc1ccc(S(=O)(=O)NCCC(=O)OCC(=O)NCc2ccccc2)cc1", "assay value": "> 65 µg/mL"}
{"compound": "O=C(CNC(=O)c1ccco1)N/N=C/c1ccc(O)cc1O", "assay value": "> 45.5 µg/mL"}
{"compound": "Cc1ccc(OCC(=O)N2CCCCC2C)c([N+](=O)[O-])n1 (stereo not drawn)", "assay value": "> 44 µg/mL"}
{"compound": "NC(CSCc1cccc(Br)c1)C(=O)O (stereo not drawn)", "assay value": "> 43.5 µg/mL"}
{"compound": "Cc1c(NC(=O)c2ccc(S(=O)(=O)Nc3ccccc3F)cc2)c(=O)n(-c2ccccc2)n1C", "assay value": "> 72.1 µg/mL"}
{"compound": "O=C(COc1ccc(-c2nnco2)cc1)N1CCOCC1", "assay value": "> 43.4 µg/mL"}
{"compound": "CCN(CCO)C(=S)Nc1cc(S(=O)(=O)N(C)C)ccc1C", "assay value": "> 51.8 µg/mL"}
{"compound": "CN1CN=C(NS(=O)(=O)c2ccc([N+](=O)[O-])cc2)NC1", "assay value": "> 44.9 µg/mL"}
{"compound": "O=S(=O)(Cc1ncc(C(F)(F)F)cc1Cl)c1ccccc1", "assay value": "> 50.4 µg/mL"}
{"compound": "Cc1ccnc2nc(C(=O)OCC(=O)Nc3ccc4c(c3)OCCO4)nn12", "assay value": "> 55.4 µg/mL"}
{"compound": "COc1ccc(C(=O)NCCNC(=O)c2ccccn2)cc1", "assay value": "> 44.9 µg/mL"}
{"compound": "CCN(CC)c1ccc(C(=O)OCC(=O)N2CCCC2)cc1", "assay value": "> 45.7 µg/mL"}
{"compound": "COc1ccc(/C=C2\\N=C3CCCN3C2=O)cc1", "assay value": "> 36.3 µg/mL"}
{"compound": "O=C(COC(=O)c1cccnc1Cl)NC(=O)NC1CCCCC1", "assay value": "> 51 µg/mL"}
{"compound": "CC(C)N(C(=O)Cn1cc(SCC(N)=O)c2ccccc21)C(C)C", "assay value": "> 52.1 µg/mL"}
{"compound": "O=C(CCC(=O)Nc1ccccc1)N/N=C/c1ccncc1", "assay value": "> 44.4 µg/mL"}
{"compound": "Cc1c(-c2ccncc2)oc2ccc(Br)cc2c1=O", "assay value": "< 0.7 µg/mL"}
{"compound": "Cc1cccc(NS(=O)(=O)c2c(C)noc2C)c1", "assay value": "> 39.9 µg/mL"}
